These entries and their values trace back to paper PMC4336329.

Molecular target: human ether-à-go-go-related gene (hERG) potassium channel (human);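 note: peak tail current of the secondary pulse compared with the same well before compound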
Test: primary screen, population patch clamp on CHO cells stably expressing hERG; higher = less effect of the substance
About 14,000 (4.5%) of roughly 310,000 compounds showed an effect of 50% or more. Effects have a minus sign here. Many of the other results were omitted from the sample, so strong results are more common in it than they were.
Each entry below carries its recorded hERG current change (%, negative = inhibition) at 10uM.
Write the value in % as a bare number.

Some solved entries appear below for comparison.
- Compound: "COc1cccc2c(=O)cc(C)n(CC(=O)Nc3cccc(C)c3)c12"
  Readout value: -59.4
- Compound: "Cc1noc(NS(=O)(=O)c2ccc(NC(=O)c3ccc(N(C)C)cc3)cc2)c1C"
  Readout value: 12.2

# input compound: COC(=O)c1cccc(NC(=O)CSc2nnc(C)n2C)c1 ; wanted: its hERG current change (%, negative = inhibition) at 10uM
26

Item: CCOCCCNCc1ccc(OC)c(OC)c1.O=C(O)C(=O)O
3.24

Would you mind doing COc1ccc(C(C)NC(=S)NCc2ccc(F)cc2)cc1OC (centres unmarked) as well?
-5.63

Please do the same for S=c1[nH]nc(-c2cccs2)n1Cc1ccccc1 as well.
9

Cool, now CSc1nc(C)c(Oc2ccccc2)c(=O)n1C
5.82

One more compound: CCN(CC)C(=O)CSc1nc2ccccc2c(=O)[nH]1
12.5

Also O=C(NCCCN1CCOCC1)c1cc(-c2ccc(Cl)s2)nc2ccccc12 , if possible.
-44.1

Next record, please: COc1ccc(OC)c(S(=O)(=O)N2CCC3(CC2)CC(=O)c2ccccc2O3)c1
-47.1

Please do the same for Cc1ccc(-n2ncc3ccccc3c2=O)cc1Cl as well.
-3.72

For c1ccc(-c2noc(-c3ccccc3-c3ccccc3)n2)cc1 then?
5.26

// repeat for CC(C)CCNC(=O)c1cc(-c2ccco2)nc2ccccc12 and report
6.45

Field entry: O=C(COc1ccc(S(=O)(=O)NC2CCCCC2)cc1)NCc1cccnc1
2.91

Thanks! And O=C(c1ccccc1-c1nc(-c2ccccc2)no1)N1CCCC1 ?
-4.86

Moving on to the next compound: CC(C)(CNC(=O)c1cc(-c2ccc(Cl)s2)nc2ccccc12)N1CCOCC1
-55.1

What about COc1ccc(N2CC(C(=O)N3CCN(c4ccccc4)CC3)CC2=O)cc1 (centres unmarked) ?
-41.6

For CC(C)(C)S(=O)(=O)c1ccc(S(=O)(=O)C(C)(C)C)s1 then?
22.8

Now the same for COc1ccc(CN(CCC(c2ccccc2)c2ccc(OC(C)C)cc2)C(=O)CCl)cc1OC (centres unmarked)
-1.82

Repeat for the following compound: CCOC(=O)c1sc2nc(C)nc(Nc3ccc(OC)cc3)c2c1C
24.1

Subsequent entry: COc1ccc(S(=O)(=O)c2ccc(OC)c(OC)c2)cc1OC
-12.2

And for COc1ccc(-c2cc(C(=O)N3CCN(c4ncccn4)CC3)c3ccccc3n2)cc1 ?
-33.4

Please give the result for COc1cccc2c(=O)cc(C)n(CC(=O)Nc3ccc(Br)cc3)c12 too.
12.8

Would you kindly repeat that for CNC(=O)CCn1nc(-c2ccc(C)cc2)c2ccccc2c1=O ?
-8.28

Quick one: O=C(c1cc(-c2ccc(Cl)cc2)nc2ccccc12)N1CCOCC1
-68.8

----------
Molecular target: human ether-à-go-go-related gene (hERG) potassium channel (human, UniProt Q12809);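 note: peak tail current of the secondary pulse compared with the same well before compound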
Sequence (Q12809 whole entry, looked up): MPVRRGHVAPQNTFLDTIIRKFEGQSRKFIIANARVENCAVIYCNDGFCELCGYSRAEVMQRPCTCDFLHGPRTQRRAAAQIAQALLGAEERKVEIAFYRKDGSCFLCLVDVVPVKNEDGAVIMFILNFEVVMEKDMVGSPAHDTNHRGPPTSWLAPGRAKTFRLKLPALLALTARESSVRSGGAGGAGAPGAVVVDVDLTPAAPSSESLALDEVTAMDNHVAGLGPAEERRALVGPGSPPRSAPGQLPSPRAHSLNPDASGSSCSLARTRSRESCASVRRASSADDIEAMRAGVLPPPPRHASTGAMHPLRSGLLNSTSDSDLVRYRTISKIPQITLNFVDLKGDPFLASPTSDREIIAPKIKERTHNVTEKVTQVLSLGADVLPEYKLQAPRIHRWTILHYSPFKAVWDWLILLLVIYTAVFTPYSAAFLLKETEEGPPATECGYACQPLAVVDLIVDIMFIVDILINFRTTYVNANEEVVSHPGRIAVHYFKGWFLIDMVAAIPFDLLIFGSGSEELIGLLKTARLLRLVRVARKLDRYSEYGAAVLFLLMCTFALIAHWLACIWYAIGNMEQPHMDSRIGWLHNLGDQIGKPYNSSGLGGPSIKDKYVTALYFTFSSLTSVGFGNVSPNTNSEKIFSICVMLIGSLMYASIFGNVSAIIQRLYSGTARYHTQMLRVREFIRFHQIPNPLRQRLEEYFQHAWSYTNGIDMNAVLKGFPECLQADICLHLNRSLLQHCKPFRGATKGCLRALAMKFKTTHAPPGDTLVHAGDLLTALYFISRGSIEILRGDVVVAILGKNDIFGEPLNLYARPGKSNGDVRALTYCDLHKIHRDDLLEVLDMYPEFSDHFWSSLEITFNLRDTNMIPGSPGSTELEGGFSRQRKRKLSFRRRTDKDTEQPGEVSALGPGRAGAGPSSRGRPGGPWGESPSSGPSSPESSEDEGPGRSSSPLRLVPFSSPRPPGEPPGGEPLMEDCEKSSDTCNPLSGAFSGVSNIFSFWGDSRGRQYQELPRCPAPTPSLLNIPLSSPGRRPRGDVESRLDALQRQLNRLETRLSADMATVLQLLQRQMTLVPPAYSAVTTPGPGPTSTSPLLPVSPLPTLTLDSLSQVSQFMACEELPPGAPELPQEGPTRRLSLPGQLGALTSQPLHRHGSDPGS
Test: primary screen, population patch clamp on CHO cells stably expressing hERG; higher = less effect of the substance
The campaign covered roughly 310,000 compounds. About 14,000 (4.5%) showed an effect of 50% or more. Effects have a minus sign here. Many of the other results were omitted from the sample, so strong results are more common in it than they were.
Overview of recorded hERG current change (%, negative = inhibition) at 10uM for various compounds

Record excerpt, results attached:
- Compound: "Nc1[nH]nc2c1NN(c1ccc(Cl)cc1Cl)N2"
  Readout value: "12.4%"
- Compound: "Cc1cc(=O)n2nc(N3CCC(C(=O)NCCc4ccc(Cl)cc4)CC3)sc2n1"
  Readout value: "-54.5%"

Which measured hERG current change (%, negative = inhibition) at 10uM value corresponds to Cc1cc(=O)n2nc(N3CCC(C(=O)N4CCN(c5ccccc5)CC4)CC3)sc2n1 ?
-11.9%

Proceed to O=C(NCc1cccs1)c1cc(S(=O)(=O)N2CCOCC2)c(Cl)cc1Cl
-81.6%

Item: Cc1ccc(CNC(=O)C2CCCN(c3nn4c(=O)cc(C)nc4s3)C2)cc1 (centres unmarked)
-31.1%

Please do the same for CCCC(C)NC(=O)c1cc(S(=O)(=O)N2CCCCCC2)ccc1OC (centres unmarked) as well.
-54.4%

Entry CCc1ccc(CNC(=O)C2CCCN(c3nn4c(=O)cc(C)nc4s3)C2)cc1 (centres unmarked) please
-36.2%

Same read-out for Cl.OC(CNCCCN1CCCCC1)COc1ccccc1 (centres unmarked) ?
-4.25%

What do we get for O=C(NCC(c1cccs1)N1CCOCC1)c1cc(S(=O)(=O)N2CCOCC2)c(Cl)cc1Cl (centres unmarked) ?
-9.54%

Again, but for O=C(NCc1ccncc1)c1cc(S(=O)(=O)N2CCOCC2)c(Cl)cc1Cl
-13.3%
